Tested on: Colo-205
Assay Explanation: In vitro proliferation assay (MTT), Colo-205
Assay type: cell-based
Condition Parameters: Homo sapiens, COLO 205; MTT assay; value (SD, n) where given; read-out: Colo-205 Colon (IC50 µM)
Structures can show the parent of a compound that is named as a salt.
Record form. Attribute: IC50. Fill in for each entry.

Exercise: // query IC50 value for entry N[C@H]1CC[C@H](Nc2nc(NC3CCN(C(=O)Nc4ccc(Cl)c(C(F)(F)F)c4)CC3)c3ncn(C4CCCC4)c3n2)CC1 [compound 179, dihydrochloride]
Key: 0.18 µM

Exercise: Give its IC50 value. Item: N[C@H]1CC[C@H](Nc2nc(NC3CCN(C(=O)NC45CC6CC(CC(C6)C4)C5)CC3)c3ncn(C4CCCC4)c3n2)CC1 (relative stereo) [compound 181, dihydrochloride]
Key: 0.04 µM

Exercise: May I ask what IC50 has been recorded for N[C@H]1CC[C@H](Nc2nc(NC3CCN(C(=O)Nc4cccc(C(F)(F)F)c4)CC3)c3ncn(C4CCCC4)c3n2)CC1 [compound 159, dihydrochloride] ?
Key: 0.02 µM

Exercise: Using the record for N[C@H]1CC[C@H](Nc2nc(NC3CCN(C(=O)Nc4ccc(F)cc4)CC3)c3ncn(C4CCCC4)c3n2)CC1 [compound 147, dihydrochloride] , report its IC50.
Key: < 0.02 µM

Exercise: Field request: IC50 | item: N[C@H]1CC[C@H](Nc2nc(NC3CCN(C(=O)/C=C/c4cccc(C(F)(F)F)c4)CC3)c3ncn(C4CCCC4)c3n2)CC1 [compound 44, dihydrochloride]
Key: 0.03 µM

Exercise: May I ask what IC50 has been recorded for Cl.Cl.N[C@H]1CC[C@H](Nc2nc(NC3CCN(C(=O)c4cccc(C(F)(F)F)c4F)CC3)c3ncn(C4CCCC4)c3n2)CC1 [compound 12, dihydrochloride] ?
Key: 0.21 µM

Exercise: Return reported IC50; argument: COC(=O)c1ccc(C(=O)N2CCC(Nc3nc(N[C@H]4CC[C@H](N)CC4)nc4c3ncn4C3CCCC3)CC2)cc1 [compound 11, dihydrochloride]
Key: 0.27 µM

Exercise: Look up IC50 for this compound: COc1ccccc1NC(=O)N1CCC(Nc2nc(N[C@H]3CC[C@H](N)CC3)nc3c2ncn3C2CCCC2)CC1 [compound 163, dihydrochloride]
Key: 0.19 µM

Exercise: Need IC50 of CCOC(=O)N1CCC(Nc2nc(N[C@H]3CC[C@H](N)CC3)nc3c2ncn3C2CCCC2)CC1 [compound 93, dihydrochloride] , thanks.
Key: 0.18 µM

Exercise: What IC50 value was documented for this compound, N[C@H]1CC[C@H](Nc2nc(NC3CCN(C(=O)Nc4ccc(Cl)c(Cl)c4)CC3)c3ncn(C4CCCC4)c3n2)CC1 [compound 209, dihydrochloride] ?
Key: 0.05 µM

Exercise: I would be grateful if you could share the reported IC50 for Cl.Cl.N[C@H]1CC[C@H](Nc2nc(NC3CCN(C(=O)Nc4ccc(C(F)(F)F)cc4)CC3)c3ncn(C4CCCC4)c3n2)CC1 [compound 149, dihydrochloride] .
Key: 0.09 µM

Exercise: May I ask what IC50 has been recorded for N[C@H]1CC[C@H](Nc2nc(NC3CCN(C(=O)Nc4ccccc4)CC3)c3ncn(C4CCCC4)c3n2)CC1 [compound 146, dihydrochloride] ?
Key: < 0.02 µM
